System: SK-MEL-5
Experiment: NCI tumour cell line growth inhibition, 48 h
Activity calls are given as the source filed them. No stated cut-off is given here; in the data, active = GI50 up to about 1.1 µM and inactive = higher.
Exercise: for every item that follows, state its recorded GI50.

### Prompt Can you share its GI50? I mean this molecule: `N#CC(C#N)=C(N)/C(C#N)=C/c1ccc2ccccc2n1`
### Response 23.8 µM (inactive)

### Prompt Can you share its GI50? I mean this molecule: C=C(C)[C@@H]1CC[C@]2(C(=O)OC)CC[C@]3(C)[C@H](CC[C@@H]4[C@@]5(C)CC[C@H](O)C(C)(C)[C@@H]5CC[C@]43C)[C@@H]12 [METHYL BETULINATE]
### Response 18.8 µM (inactive)

### Prompt Can you share its GI50? I mean this molecule: CC1(C)CCCCCCCCCC(C)(CCCCCCCCCCCCO)C1=O (centres undefined)
### Response 19.5 µM (inactive)

### Prompt Can you share its GI50? I mean this molecule: `N=C(N)N/N=C/c1c(-c2ccc([N+](=O)[O-])cc2)nc2sccn12`
### Response 3.23 µM (inactive)

----------
Tested on: HT-29
Experiment: NCI tumour cell line growth inhibition, 48 h
Active and inactive are the calls of the source. Rule as the data show it: active = GI50 up to about 1.1 µM and inactive = higher.
Mark one answer only. Choices: active, inactive

### Prompt Tell me the assay call for CC(=O)OC1(C)CC(C)C(=O)C(C(O)CC2CC(=O)NC(=O)C2)C1 (centres undefined) please.
### Response active

### Prompt Tell me the assay call for `O=C(NCCCN(CCCCN(CCCNC(=O)C(F)(F)F)CCCc1ccccc1)CCCc1ccccc1)C(F)(F)F` please.
### Response inactive

### Prompt Tell me the assay call for `CCN(CC)C(=S)N/N=C(/C)c1cccc(/C(C)=N\NC(=S)N(CC)CC)n1` please.
### Response inactive

### Prompt Tell me the assay call for `Cc1nc2ccc(Cl)cc2c2c1CCO2` please.
### Response inactive

### Prompt Tell me the assay call for `Cc1ccc2c(=O)cc(-c3ccc(-c4ccccc4)s3)[nH]c2n1` please.
### Response inactive

### Prompt Tell me the assay call for CC(=O)OCCC1c2ccccc2-n2nc(-c3ccccc3)c(O)c21 (centres undefined) please.
### Response inactive

### Prompt Tell me the assay call for COC(C)(C)[C@H](O)C(O)CC(C)[C@@H]1CCC23CC12CCC1[C@@]2(C)CCC(OC(C)=O)C(C)(C)C2CC(OC2OC(COC(C)=O)C(O)C(O)C2O)[C@]13C (some centres undefined) please.
### Response inactive

### Prompt Tell me the assay call for `NS(=O)(=O)c1ccc(NS(=O)(=O)c2ccc(NC(=O)N(c3ccccc3)c3ccccc3)cc2)cc1` please.
### Response inactive

### Prompt Tell me the assay call for COC(=O)c1cc(C(=O)OC)c(CC(=O)C(=O)NC2C3CC4CC(C3)CC2C4)nc1CC(=O)C(=O)NC1C2CC3CC(C2)CC1C3 (centres undefined) please.
### Response inactive

----------
Exercise: for every item that follows, state its recorded GI50.
System: SK-MEL-5
Experiment: NCI tumour cell line growth inhibition, 48 h
Active and inactive are the calls of the source. Rule as the data show it: active = GI50 up to about 1.1 µM and inactive = higher.

### Prompt Can you share its GI50? I mean this molecule: `CCOC(=O)/C=C/c1c(C)[nH]c(=O)[nH]c1=O`
### Response > 250 µM (inactive)

### Prompt Can you share its GI50? I mean this molecule: C=C1C(=O)OC2CC(C)C3(O)CCC(=O)C3(C)CC12 (stereo unspecified)
### Response 36.6 µM (inactive)

### Prompt Can you share its GI50? I mean this molecule: `Cc1cc(C)n(-c2c(O)ccc(O)c2-n2nc(C)cc2C)n1`
### Response > 100 µM (inactive)

### Prompt Can you share its GI50? I mean this molecule: `COc1ccccc1-c1cc(=O)c2ccc(OC)c(OC)c2o1`
### Response 27.7 µM (inactive)

### Prompt Can you share its GI50? I mean this molecule: CCOC(=O)C(C)c1nc2cc(C(F)(F)F)ccc2[nH]c1=O (stereo unspecified)
### Response 42.2 µM (inactive)

### Prompt Can you share its GI50? I mean this molecule: `CSc1c(C#N)c(=O)n(N)c2c1c(C)nn2-c1ccccc1`
### Response 15.3 µM (inactive)

----------
Tested on: UACC-62
Test: NCI tumour cell line growth inhibition, 48 h
The source made the active and inactive calls. Rule as the data show it: active = GI50 up to about 1.1 µM and inactive = higher.
Mark one answer only. Choices: yes (active), no (inactive)

### Prompt Tell me the assay call for `Cn1c(=O)nc2n(-c3ccc(F)c(F)c3)c3ccccc3nc-2c1=O` please.
### Response no

### Prompt Tell me the assay call for `C=C(CN(C)C)C(=O)c1ccccc1[N+](=O)[O-]` please.
### Response no

### Prompt Tell me the assay call for CCCCCCCC1c2cc3nc(cc4[nH]c(cc5nc(cc([nH]2)[C@@]1(C)CC(=O)N(C)C)C(C)=C5CCC(=O)O)c(CCC(=O)O)c4C)C=C3C (stereo partly specified) please.
### Response no

### Prompt Tell me the assay call for COC(=O)/C=C(C)/C=C/C1OC(C)OCC1O (stereo unspecified) please.
### Response no

### Prompt Tell me the assay call for O=CN1CCN(CC(O)CN2CCCCC2)CC1 (stereo unspecified) please.
### Response no

### Prompt Tell me the assay call for O=C1NC(c2ccc(O)cc2)C2CCC1C2 (stereo unspecified) please.
### Response no

### Prompt Tell me the assay call for `CC1=C(N2CC2)C(=O)C(C)=C(N2CC2)C1=O` please.
### Response yes

### Prompt Tell me the assay call for Cc1ccc(SC(C)/C=C/NNC2=NN=C(c3ccccc3)C(c3ccccc3)N2)cc1 (stereo unspecified) please.
### Response no

### Prompt Tell me the assay call for CC1OC(n2cnc3c(N)nc(Cl)nc32)C(C)(O)C1O (stereo unspecified) please.
### Response no

### Prompt Tell me the assay call for `CCSC1=C(C#N)C2(CCCCC2)C2=C(O)CC(C)(C)CC2=N1` please.
### Response no

### Prompt Tell me the assay call for `O=c1nc(/C=C/c2ccccc2Cl)cc2n1CCN2CCO` please.
### Response no

----------
Tested on: HOP-92
Experiment: NCI tumour cell line growth inhibition, 48 h
Active and inactive are the calls of the source. No stated cut-off is given here; in the data, active = GI50 up to about 1.1 µM and inactive = higher.
Exercise: for every item that follows, state its recorded GI50.

### Prompt Can you share its GI50? I mean this compound: `COc1cc(/C=N/N=C2NCCCCN2)ccc1O`
### Response > 100 µM (inactive)

### Prompt Can you share its GI50? I mean this compound: COC(=O)C1=C(O)C(C(=O)OC)[C@@]2(O)[C@@H](C(=O)OC)C(c3ccc(OC(=O)/C=C/c4ccccc4)cc3)C[C@@H]1[C@@H]2C(=O)OC (some centres undefined)
### Response 29.4 µM (inactive)

### Prompt Can you share its GI50? I mean this compound: CC(C)(C)C1CCC2c3c([nH]c4ccccc34)C3C(=O)N(c4cccc([N+](=O)[O-])c4)C(=O)C3C2C1 (centres undefined)
### Response 61.5 µM (inactive)

### Prompt Can you share its GI50? I mean this compound: `CC1(C)N=C(N)N=C(N)N1c1ccc(OCC(=O)Nc2cccc(S(=O)(=O)F)c2)c(Cl)c1`
### Response 2.25 µM (inactive)

----------
Test system: MDA-MB-435
Assay: NCI tumour cell line growth inhibition, 48 h
Active and inactive are the calls of the source. Rule as the data show it: active = GI50 up to about 1.1 µM and inactive = higher. Where a SMILES comes first, the peptide text is derived from it. [ ]: non-standard residue; d: D form. Ac5c = NC1(C(=O)O)CCCC1
Mark one answer only. Choices: true = active, false = inactive

### Prompt Tell me the assay call for COC(=O)C1(NC(=O)C(C)NC(=O)C(CCCCN)NC(=O)C(CC(C)C)NC(C)=O)CCCC1 (centres undefined) (Ac-LKA[Ac5c]-OMe; configuration not given here) please.
### Response false

### Prompt Tell me the assay call for `COc1ccccc1-c1cc(=O)c2ccc(OC)c(OC)c2o1` please.
### Response false

### Prompt Tell me the assay call for CC(=O)OC1(C)CC(C)C(=O)C(C(O)CC2CC(=O)NC(=O)C2)C1 (centres undefined) please.
### Response true

### Prompt Tell me the assay call for `CCSc1nc(N/N=C/c2cccs2)c2cnn(CO)c2n1` please.
### Response false

### Prompt Tell me the assay call for CC(=O)NC1C(OCc2ccccc2)OC(CO)C(O)C1OCC(=O)NC(C(=O)NC(CCC(=O)NCCCCCC(=O)Nc1ccc2c(c1)CN1C(=O)c3ccccc3C1=N2)C(N)=O)C(C)C (centres undefined) please.
### Response false

### Prompt Tell me the assay call for CCC(C(=O)c1cccs1)C(O)(C(F)(F)F)C(F)(F)F (centres undefined) please.
### Response false

### Prompt Tell me the assay call for `O=c1c2cc(Br)ccc2oc2ccc(Br)cc12` please.
### Response false

### Prompt Tell me the assay call for N#Cc1c(-c2ccc(Cl)cc2)[nH]c(=O)n(C2OC(CO)C(O)C(O)C2O)c1=O (centres undefined) please.
### Response false

### Prompt Tell me the assay call for `O=[N+]([O-])c1ccc2c(c1)c(OCc1ccccc1)nn2Cc1ccccc1` please.
### Response false
